Quick reference for log10(kon) among some binders
- measured-target: T1, NPNA4 peptide (Plasmodium falciparum (isolate 3D7)., not fully specified)
- T1 construct: source: synthetic peptide (InnoPep Inc)
- T1 chain: NPNANPNANPNANPNA
- experimental-details: BLI
- measurement-setup: both partners purified
Ends that are not written are not given here.
Units before log transform: M⁻¹ s⁻¹; reported quantity: kon; transform: log10.

Which measured log10(kon) value corresponds to 356R Fab (Fab, V domains shown, also called germline-reverted 356; source: ExpiCHO cells, purified (mAb Select PrismA or Capture Select, SEC)) VH: QVQLVESGGGVVQPGRSLRLSCAASGFTFSSYGMHWVRQTPGKGLEWVAVIWHDGSNKFYADSVKGRFTISRDNSKNMIYLQMNSLRVEDTAIYYCARDSLFYDHDNSGYYGYWGQGTLVTVSS VL: EIVMTQSPATVSVSPGERATLSCRASQSVTSKLAWYQQKPGQAPRLLIYGASTRATGIPARFSGSGSGTEFTLTISSLQSEDFAVYFCQQYNNGFTFGPGTKVDFK ?
5.75

Which measured log10(kon) value corresponds to 227 Fab (Fab, V domains shown, also called mAb 227; source: ExpiCHO cells, purified (mAb Select PrismA or Capture Select, SEC)) VH: QVQLVQSGGGVVQPGRSLRLSCVTSGFTFPAFGMHWVRQAPGKGLEWVAVIWYDGSKKYYADSVRGRFTISRDNSRNTLYLQMHSLRAEDTAVYYCARVKNYESSGYSQCLDYWGQGVLVTVAS VL: QSVLTQPPSVSGAPGQRVTISCTGSSSNIGAGYDVHWYQQLPGTAPKLLIYGNGNRPSGVPDRFSGSKSGTSVSLAITGLQAEDEADYYCQSYDSSLSAFVFGTGTKVTVL ?
5.11

Which measured log10(kon) value corresponds to 239 Fab (Fab, V domains shown, also called mAb 239; source: ExpiCHO cells, purified (mAb Select PrismA or Capture Select, SEC)) VH: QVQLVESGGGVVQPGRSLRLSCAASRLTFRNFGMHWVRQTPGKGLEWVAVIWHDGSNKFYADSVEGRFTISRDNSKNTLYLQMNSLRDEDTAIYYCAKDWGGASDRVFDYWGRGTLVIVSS VL: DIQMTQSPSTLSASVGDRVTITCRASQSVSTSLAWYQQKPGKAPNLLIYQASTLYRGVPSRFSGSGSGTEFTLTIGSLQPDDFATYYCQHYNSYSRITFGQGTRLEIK ?
5.04

Which measured log10(kon) value corresponds to 364 Fab (Fab, V domains shown, also called mAb 364; source: ExpiCHO cells, purified (mAb Select PrismA or Capture Select, SEC)) VH: QVQLVESGGGVVQPGGSLRLSCAASGFTFSGYGMHWVRQVPGKGLEWVAIIWFDGSQKYYADSVQGRFTISRDNSKKTLFLRMNSLRAEDTAVYYCAKVHDDEPTQDYWGQGTLVTVSS VL: DIQMTQSPSTLSASVGDRVTITCRASQGISTSLAWYQQKPGKAPKLLIYKASSLESGVPSRFSGSGSGTEFTLTITSLQPEDFATYYCQQYKRYWTFGQGTKVEIK ?
4.63

Which measured log10(kon) value corresponds to 334 Fab (Fab, V domains shown, also called mAb 334; source: ExpiCHO cells, purified (mAb Select PrismA or Capture Select, SEC)) VH: QVQLVESGGGVVQPGRSLTLSCAASGFTFSNYGMHWVRQTPGKGLAWVAIIWYDGSKTYYEDSVKGRFTISRDNSKNTLYLQMNSLRVDDTAVYYCARVRHSSSRHGSAFDLWGQGTLVTVSS VL: VIQMTQSPSTLSASVGDRVTITCRASQSVSTWLAWYQQKPGQGPKLLIYEASSLESGVPSRFSGSGSGTEFTLTISSLQPDDFATYYCQQYNSYSFWTFGQGTKVEIK ?
4.72
